Origin of the recorded values: PubChem BioAssay (NCI)

- PROTOCOL NOTES: NCI Yeast Anticancer Drug Screen. Data for the bub3 strain (AID 167)
- TEST CONTEXT: S. cerevisiae bub3 mutant strain, at 50.0 µM
This is part of a sample that, as a whole, favours compounds with a hit. Of some 79,000 tested, about 15% had one in any assay. Calls of active or inactive are those of the source. Rule as the data show it: active = growth inhibition above about 70%; inactive = the rest.
Outcome codes: 1 = active, 0 = inactive

[
  {
    "COMPOUND": "CC(C)c1cc(=O)c2cc3[nH]c4ccccc4c3cc2[nH]1",
    "CLASSIFICATION": 0
  },
  {
    "COMPOUND": "c1c[n+](CCC2CCCCC2)ccn1",
    "CLASSIFICATION": 0
  },
  {
    "COMPOUND": "O=C(CN1CCCC1)Nc1nc(-c2ccc(Cl)cc2)cs1",
    "CLASSIFICATION": 0
  },
  {
    "COMPOUND": "O=C1/C(=C/c2cccc(F)c2)CCCc2ccccc21",
    "CLASSIFICATION": 1
  },
  {
    "COMPOUND": "C=CCCCN1C(=O)C2C3c4ccccc4C(C=O)(c4ccccc43)C2C1=O (configuration not stated)",
    "CLASSIFICATION": 0
  },
  {
    "COMPOUND": "C/C(=N\\NC(=S)N1CCC(C)CC1)c1ncccn1",
    "CLASSIFICATION": 1
  },
  {
    "COMPOUND": "O=C(c1ccccc1)N1CCCCC1",
    "CLASSIFICATION": 0
  },
  {
    "COMPOUND": "O=C1C(Cl)=C(c2ccc([N+](=O)[O-])cc2)C(=O)c2c(O)cccc21",
    "CLASSIFICATION": 1
  },
  {
    "COMPOUND": "O=C(O)CC1c2ccccc2-c2ccccc21",
    "CLASSIFICATION": 1
  },
  {
    "COMPOUND": "Nc1cc2c(c[n+](CCCBr)c3ccccc23)c2ccccc12",
    "CLASSIFICATION": 0
  },
  {
    "COMPOUND": "CC(=O)Oc1c2c(c(C)c3ccccc13)C(=O)c1cccnc1C2=O",
    "CLASSIFICATION": 1
  },
  {
    "COMPOUND": "CC(c1ccccc1)[P+](c1ccccc1)(c1ccccc1)c1ccccc1 (configuration not stated)",
    "CLASSIFICATION": 1
  }
]

---

Each entry below carries its recorded growth inhibition.
- PROTOCOL NOTES: NCI Yeast Anticancer Drug Screen. Data for the rad50 strain (AID 155);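 also: 0% = growth of vehicle-only cultures of the same strain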
- TEST CONTEXT: S. cerevisiae rad50 strain growth inhibition; at 5.0 µM (retest, dose inferred, filed as 0.5); active compounds read high
The panel holds about 79,000 compounds, 15% with a hit somewhere; the sample as a whole holds those more often. Calls of active or inactive are those of the source. Rule as the data show it: active = growth inhibition above about 70%; inactive = the rest.

[
  {
    "MOLECULE": "CC(O)c1cc(-c2ccc(Cl)cc2)nc2ccccc12 (stereo unspecified)",
    "growth inhibition": "12% (inactive)"
  },
  {
    "MOLECULE": "O=[N+]([O-])c1ccccc1Oc1ccc([N+](=O)[O-])c(C(F)(F)F)c1",
    "growth inhibition": "-4% (inactive)"
  },
  {
    "MOLECULE": "COC1=CC(=O)c2ncccc2C1=O",
    "growth inhibition": "13% (inactive)"
  },
  {
    "MOLECULE": "O=C1C2=C(CCCC2)C(=O)c2ccccc21",
    "growth inhibition": "6% (inactive)"
  },
  {
    "MOLECULE": "Cn1cc(CCC(=O)C2C=CC=CC2=NC(=O)CCCl)c2ccccc21 (stereo unspecified)",
    "growth inhibition": "11% (inactive)"
  },
  {
    "MOLECULE": "CCc1cc2c(c3[nH]ccc13)[C@@H](C)C[C@H]2C",
    "growth inhibition": "-3% (inactive)"
  }
]

---

- PROTOCOL NOTES: NCI Yeast Anticancer Drug Screen. Data for the cln2 rad14 strain (AID 165);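 also: 0% = growth equal to vehicle treated cultures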
- TEST CONTEXT: S. cerevisiae cln2 rad14 strain, at 50.0 µM (retest, dose inferred, filed as 5.0)
This is part of a sample that, as a whole, favours compounds with a hit. Of some 79,000 tested, about 15% had one in any assay. Calls of active or inactive are those of the source. Rule as the data show it: active = growth inhibition above about 70%; inactive = the rest.
Outcome codes: 1 (yes) for active, 0 (no) for inactive

[
  {
    "COMPOUND": "C[n+]1c2ccccc2cc2[nH]c3ccccc3c21",
    "CLASSIFICATION": "1 (yes)"
  },
  {
    "COMPOUND": "COc1ccc(C(c2ccccc2C(=O)O)c2ccc(OC)c3ccccc23)c2ccccc12",
    "CLASSIFICATION": "1 (yes)"
  },
  {
    "COMPOUND": "N#C/C(=C/c1ccc([N+](=O)[O-])o1)c1ccccc1",
    "CLASSIFICATION": "0 (no)"
  },
  {
    "COMPOUND": "CC(C)CN(CC(C)C)CN1C(=O)/C(=C/c2ccc([N+](=O)[O-])cc2)SC1=S",
    "CLASSIFICATION": "0 (no)"
  },
  {
    "COMPOUND": "CN(Cc1cc(Cl)cc(Cl)c1)CC(C(=O)c1ccccc1)c1ccccc1 (configuration not stated)",
    "CLASSIFICATION": "1 (yes)"
  },
  {
    "COMPOUND": "Clc1ccc(-c2csc(NCC3CCCO3)n2)cc1 (configuration not stated)",
    "CLASSIFICATION": "0 (no)"
  },
  {
    "COMPOUND": "CCCCCCCCCSC(=S)N(C)NC(=O)c1ccccn1",
    "CLASSIFICATION": "1 (yes)"
  },
  {
    "COMPOUND": "COc1cc(CNc2nc3ccccc3nc2-c2cccs2)cc(OC)c1OC",
    "CLASSIFICATION": "0 (no)"
  },
  {
    "COMPOUND": "CN(C)c1ccc(C2CC(C)(N3CCCC3)Oc3cc4c(cc32)OCO4)cc1 (configuration not stated)",
    "CLASSIFICATION": "0 (no)"
  },
  {
    "COMPOUND": "O=S(=O)(C#Cc1ccccc1)c1ccccc1",
    "CLASSIFICATION": "1 (yes)"
  },
  {
    "COMPOUND": "CC(C)/C=C1\\CCC(CN2CCOCC2)C1=O (configuration not stated)",
    "CLASSIFICATION": "0 (no)"
  },
  {
    "COMPOUND": "CC1C(=O)C(C)C(c2ccccc2)N(C)C1c1ccccc1 (configuration not stated)",
    "CLASSIFICATION": "1 (yes)"
  }
]

---

- PROTOCOL NOTES: NCI Yeast Anticancer Drug Screen. Data for the mec2-1 strain (AID 157)
- TEST CONTEXT: S. cerevisiae mec2-1 strain, at 5.0 µM (retest, dose inferred, filed as 0.5)
Compounds without any hit were thinned out: in the full panel of roughly 79,000, 15% have a hit. The source made the active and inactive calls. Rule as the data show it: active = growth inhibition above about 70%; inactive = the rest.
Outcome codes: active, inactive

[
  {
    "COMPOUND": "NC(=O)C1CCCN1C(=O)C1CCCN(Cc2ccc(CN3CCCC(C(=O)N4CCCC4C(N)=O)C3)cc2)C1 (centres undefined)",
    "CLASSIFICATION": "inactive"
  },
  {
    "COMPOUND": "CN(C)C(=S)SN(C)C(=O)Nc1ccccc1",
    "CLASSIFICATION": "inactive"
  },
  {
    "COMPOUND": "N=c1ccc2c(c1)[nH]c1c3ccccc3[nH]c3cccc2c31",
    "CLASSIFICATION": "inactive"
  },
  {
    "COMPOUND": "CC(C)(C)C1=CC(=CC=C2C=CN(CCO)C=C2)C=C(C(C)(C)C)C1=O",
    "CLASSIFICATION": "inactive"
  },
  {
    "COMPOUND": "CC1(C)CCC(C)(C)c2cc(C(=O)Nc3ccc(C(=O)O)cc3)ccc21",
    "CLASSIFICATION": "inactive"
  },
  {
    "COMPOUND": "NC(c1ccccc1)P(=O)(OCc1ccc([N+](=O)[O-])cc1)OCc1ccc([N+](=O)[O-])cc1 (centres undefined)",
    "CLASSIFICATION": "inactive"
  },
  {
    "COMPOUND": "O=C(OC1C2CCC2C2CC21)c1ccc([N+](=O)[O-])cc1[N+](=O)[O-] (centres undefined)",
    "CLASSIFICATION": "inactive"
  },
  {
    "COMPOUND": "Brc1ccc(C2c3ccccc3-c3ccccc32)cc1",
    "CLASSIFICATION": "inactive"
  },
  {
    "COMPOUND": "CC(=O)O[C@@H]1CO[C@H]2O[C@H]3[C@@H](C(C=O)=C[C@H](O)[C@@H]4C5=C(C(C)C)CC[C@]5(C)CC[C@@]34C)[C@@]2(O)C1=O",
    "CLASSIFICATION": "active"
  }
]
